Sourced from ChEMBL document CHEMBL3817760

Would you mind telling me the reported IC50 of each entry?
- assay_system: Acetylcholinesterase (Electrophorus electricus, UniProt O42275)
- Sequence (O42275 whole entry): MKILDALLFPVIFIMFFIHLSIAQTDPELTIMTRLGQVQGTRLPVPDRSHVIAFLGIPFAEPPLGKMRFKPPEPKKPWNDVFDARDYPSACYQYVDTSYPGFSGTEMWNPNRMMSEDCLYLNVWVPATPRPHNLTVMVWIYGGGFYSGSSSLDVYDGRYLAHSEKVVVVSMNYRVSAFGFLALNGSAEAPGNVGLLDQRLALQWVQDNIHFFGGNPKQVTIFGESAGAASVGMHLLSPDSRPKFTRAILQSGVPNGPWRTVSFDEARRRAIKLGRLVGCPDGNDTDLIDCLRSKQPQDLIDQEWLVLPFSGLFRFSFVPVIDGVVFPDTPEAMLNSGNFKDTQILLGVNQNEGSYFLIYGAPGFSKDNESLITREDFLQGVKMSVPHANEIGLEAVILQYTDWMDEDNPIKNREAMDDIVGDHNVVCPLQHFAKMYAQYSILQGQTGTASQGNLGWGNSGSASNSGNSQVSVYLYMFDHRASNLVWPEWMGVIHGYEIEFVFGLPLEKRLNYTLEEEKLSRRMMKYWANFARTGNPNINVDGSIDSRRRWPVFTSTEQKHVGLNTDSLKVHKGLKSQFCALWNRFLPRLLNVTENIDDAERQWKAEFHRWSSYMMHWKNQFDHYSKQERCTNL

Exercise: What IC50 value was documented for this compound, `O=C1C(=Cc2ccc(N3CCN(Cc4ccc5c(c4)OCO5)CC3)cc2)C(=O)c2ccccc21` ?
Key: 131 nM

Exercise: Moving on to the next compound: `Cc1ccc(N2CCN(c3ccc(C=C4C(=O)c5ccccc5C4=O)cc3)CC2)cc1`
Key: 251 nM

Exercise: Moving on to the next compound: `O=C1C(=Cc2ccc(N3CCN(c4ccc(F)cc4)CC3)cc2)C(=O)c2ccccc21`
Key: 173 nM

###

- assay_system: Acetylcholinesterase (Electrophorus electricus)
Mark each entry MET if its IC50 sits below 200 nM, and NOT MET for all others.

Exercise: Consider the molecule `Cc1ccc(N2CCN(c3ccc(C=C4C(=O)c5ccccc5C4=O)cc3)CC2)c(C)c1` . Is its IC50 strictly less than 200 nM?
Key: NOT MET

Exercise: Moving on to the next molecule: `O=C1C(=Cc2ccc(N3CCN(c4ccc(Cl)cc4)CC3)cc2)C(=O)c2ccccc21`
Key: NOT MET

Exercise: Moving on to the next molecule: `O=C1C(=Cc2ccc(N3CCN(c4ccccn4)CC3)cc2)C(=O)c2ccccc21`
Key: MET

Exercise: Moving on to the next molecule: `O=C1C(=Cc2ccc(N3CCN(c4ncccn4)CC3)cc2)C(=O)c2ccccc21`
Key: MET

Exercise: Moving on to the next molecule: `O=C1C(=Cc2ccc(N3CCN(c4ccc(C(F)(F)F)cc4)CC3)cc2)C(=O)c2ccccc21`
Key: MET

Exercise: Moving on to the next molecule: `O=C1C(=Cc2ccc(N3CCN(C(=O)c4ccco4)CC3)cc2)C(=O)c2ccccc21`
Key: MET

Exercise: Moving on to the next molecule: `O=C1C(=Cc2ccc(N3CCN(C(c4ccccc4)c4ccccc4)CC3)cc2)C(=O)c2ccccc21`
Key: MET

Exercise: Moving on to the next molecule: `O=C1C(=Cc2ccc(N3CCN(C(=O)c4ccccc4)CC3)cc2)C(=O)c2ccccc21`
Key: NOT MET

Exercise: Moving on to the next molecule: `O=C1C(=Cc2ccc(N3CCN(c4ccccc4)CC3)cc2)C(=O)c2ccccc21`
Key: NOT MET
